assay: in vitro; settings: human
measuredMetric: half-life at 5 μM

Request: Please supply the value of reported half-life at 5 μM for the item `N=C(N)NCCC[C@H](NC(=O)[C@H](CCCNC(=N)N)NC(=O)[C@H](CCCNC(=N)N)NC(=O)[C@H](CCCNC(=N)N)NC(=O)[C@H](CCCNC(=N)N)NC(=O)[C@H](CCCNC(=N)N)NC(=O)[C@H](CCCNC(=N)N)NC(=O)[C@H](CCCNC(=N)N)NC(=O)[C@H](CCCNC(=N)N)NC(=O)[C@H](CCCNC(=N)N)NC(=O)[C@H](CCCNC(=N)N)NC(=O)CNC(=S)Nc1ccc2c(c1)C(=O)OC21c2ccc(O)cc2Oc2cc(O)ccc21)C(=O)O`
Response: 23 to 24 h
